Cited source: patent US9868748B2

# target_of_assay: full-length RORγt in Jurkat cells (Homo sapiens (Human))
# Sequence (P51449 other isoform, or with tags, fused parts or gaps): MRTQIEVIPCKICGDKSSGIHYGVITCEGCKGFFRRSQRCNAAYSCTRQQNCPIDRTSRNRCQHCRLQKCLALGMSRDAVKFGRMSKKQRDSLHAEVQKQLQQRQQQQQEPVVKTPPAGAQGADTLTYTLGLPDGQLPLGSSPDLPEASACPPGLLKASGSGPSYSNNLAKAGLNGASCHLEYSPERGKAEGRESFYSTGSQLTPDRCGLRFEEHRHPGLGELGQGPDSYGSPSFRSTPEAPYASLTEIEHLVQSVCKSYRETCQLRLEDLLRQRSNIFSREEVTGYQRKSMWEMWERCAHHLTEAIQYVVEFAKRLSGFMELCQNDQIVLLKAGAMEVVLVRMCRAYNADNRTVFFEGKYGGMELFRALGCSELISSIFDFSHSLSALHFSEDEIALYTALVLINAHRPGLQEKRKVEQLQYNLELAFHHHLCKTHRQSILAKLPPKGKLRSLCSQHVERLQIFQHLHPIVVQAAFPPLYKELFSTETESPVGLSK
# test_description: RORγt 5xRORE Assay in Jurkat Cells (Assay 2)
# Type: cell-based
# condition_set: Nanoluc luciferase reporter, 16-18 hrs, Table 9, read-out: RORγt5X IC50 Range*
attribute_measured: IC50

Solved entries:
Recorded IC50 for `CCS(=O)(=O)c1ccc(CC(=O)Nc2nc3c(s2)CN(Cc2ccn(C)c(=O)c2)[C@H]3C(C)C)cc1` , please? > 1000 nM

Recorded IC50 for `CCS(=O)(=O)c1ccc(CNC(=O)c2nc3c(s2)CN(Cc2ccc4nonc4c2)[C@H]3C(C)C)nc1` , please? 100 to 1000 nM

Recorded IC50 for `CC(C)Oc1ccc(CC(=O)Nc2nc3c(s2)CN(Cc2ccc(Cl)cc2)[C@H]3C(C)C)cc1` , please? > 1000 nM

Recorded IC50 for `CC[C@@H](C)[C@@H]1c2nc(NC(=O)Cc3ccc(S(C)(=O)=O)cc3)sc2CN1Cc1ccc(OC(F)(F)F)cc1` , please? 100 to 1000 nM

Recorded IC50 for CCS(=O)(=O)c1ccc(CC(=O)Nc2nc3c(s2)CN(C[C@H]2CC[C@@](OC)(C(F)(F)F)CC2)[C@H]3C(C)C)nc1 (single isomer, unassigned) , please? 100 to 1000 nM

Recorded IC50 for CC(C)[C@H]1c2nc(NC(=O)Cc3ccc(S(C)(=O)=O)cc3)sc2CN1[C@H](C)c1ccc(C(F)(F)F)nc1 (single isomer, unassigned) , please? < 100 nM

Recorded IC50 for `CC[C@H]1c2nc(NC(=O)Cc3ccc(S(=O)(=O)CC)cc3)sc2CN1Cc1ccc2nc[nH]c2c1` , please? 100 to 1000 nM

Recorded IC50 for `CCS(=O)(=O)c1cnc(CNC(=O)c2nc3c(s2)CN(Cc2ccc(C#N)cc2)[C@H]3C(C)C)nc1` , please? 100 to 1000 nM

Recorded IC50 for `CC(C)[C@H]1c2nc(NC(=O)Cc3ccc(-c4nnn(C)n4)cc3)sc2CN1Cc1ccc(Cl)cc1` , please? 100 to 1000 nM

Recorded IC50 for `CCS(=O)(=O)c1cnc(CNC(=O)c2nc3c(s2)CN(Cc2ccc(C(F)(F)F)cc2)[C@H]3C(C)C)nc1` , please? 100 to 1000 nM

***
Recorded IC50 for `CCS(=O)(=O)c1ccc(CC(=O)Nc2nc3c(s2)CN(c2nccc(C(F)(F)F)n2)C3(C)C)cc1` , please? > 1000 nM

Recorded IC50 for `CCS(=O)(=O)c1ccc(CNC(=O)c2nc3c(s2)CN(Cc2ccc(C(F)F)cc2)[C@H]3C(C)C)nc1` , please? < 100 nM

Recorded IC50 for `CCS(=O)(=O)c1ccc(CC(=O)Nc2nc3c(s2)CN(c2nc(C)cc(C(F)(F)F)n2)[C@@H]3C(C)C)cc1` , please? > 1000 nM

Recorded IC50 for `CC(C)[C@H]1c2nc(NC(=O)Cc3ccc(S(C)(=O)=O)cc3)sc2CN1[C@H](C)c1cnc(Cl)cc1F` , please? 100 to 1000 nM

Recorded IC50 for `CCS(=O)(=O)c1ccc(CC(=O)Nc2nc3c(s2)CN([C@@H](C)Cc2ccc(Cl)cc2)[C@H]3C(C)C)cc1` , please? 100 to 1000 nM

Recorded IC50 for CCS(=O)(=O)c1ccc(CC(=O)Nc2nc3c(s2)CN(C[C@H]2CC[C@H](C(F)(F)F)NC2)[C@H]3C(C)C)nc1 (single isomer, unassigned) [drawing 212] , please? > 1000 nM

Recorded IC50 for `CCS(=O)(=O)c1ccc(CC(=O)Nc2nc3c(s2)CN(Cc2c(F)cc(C#N)cc2F)[C@H]3C(C)C)cc1` , please? 100 to 1000 nM

Recorded IC50 for `CC[C@H]1c2nc(NC(=O)Cc3ccc(S(=O)(=O)C(F)F)cc3)sc2CN1Cc1ccc(Cl)cc1` , please? 100 to 1000 nM

Recorded IC50 for `CCS(=O)(=O)c1ccc(CC(=O)Nc2nc3c(s2)CN(Cc2ccc(OC(F)F)cc2)[C@@H]3C(C)C)cc1` , please? > 1000 nM

Recorded IC50 for `CC[C@@H]1c2nc(NC(=O)Cc3ccc(S(=O)(=O)CC)cc3)sc2CN1Cc1ccc(Cl)cc1` , please? > 1000 nM

Recorded IC50 for CCS(=O)(=O)c1ccc(CC(=O)Nc2nc3c(s2)CN([C@H](C)c2ccc(C#N)cn2)[C@H]3C(C)C)cc1 (single isomer, unassigned) , please? < 100 nM

Recorded IC50 for CCS(=O)(=O)c1ccc(CC(=O)Nc2nc3c(s2)CN(C[C@H]2CC[C@](OC)(C(F)(F)F)CC2)[C@H]3C(C)C)nc1 (single isomer, unassigned) , please? < 100 nM

Recorded IC50 for `CC(C)[C@H]1c2nc(NC(=O)Cc3ccc(S(C)(=O)=O)cc3)sc2CN1Cc1cnc(C(F)(F)F)nc1` , please? < 100 nM

* * *

# target_of_assay: full-length RORγt in Jurkat cells (Homo sapiens (Human))
# test_description: RORγt 5xRORE Assay in Jurkat Cells (Assay 2)
# Assay type: cell-based
# condition_set: Nanoluc luciferase reporter, 16-18 hrs, Table 9, read-out: RORγt5X IC50 Range*
pIC50: −log10 of the molar value.
attribute_measured: pIC50

Recorded pIC50 for `CCS(=O)(=O)c1ccc(CC(=O)Nc2nc3c(s2)CN(Cc2ccc(C(=O)O)cc2)[C@H]3C(C)C)cc1` , please? 6.00 to 7.00

***
Recorded pIC50 for CCS(=O)(=O)c1ccc(CC(=O)Nc2nc3c(s2)CN(C[C@@H]2CC[C@H](C(F)(F)F)OC2)[C@H]3C(C)C)nc1 (single isomer, unassigned) , please? < 6.00

Recorded pIC50 for CC(C)[C@H]1c2nc(NS(=O)(=O)c3ccc(CC(=O)O)cc3)sc2CN1Cc1ccc(C#N)c(F)c1 [drawing 411] , please? < 6.00

Recorded pIC50 for CCS(=O)(=O)c1ccc(CC(=O)Nc2nc3c(s2)CN(C[C@H]2CC[C@@H](C(F)(F)F)N(C)C2)C3C(C)C)cc1 (single isomer, unassigned) , please? < 6.00

Recorded pIC50 for CCS(=O)(=O)c1ccc(CC(=O)Nc2nc3c(s2)CN(C[C@H]2CC[C@@](O)(C(F)(F)F)CC2)[C@H]3C(C)C)cc1 (single isomer, unassigned) , please? > 7.00

* * *

# target_of_assay: full-length RORγt in Jurkat cells (Homo sapiens (Human))
# test_description: RORγt 5xRORE Assay in Jurkat Cells (Assay 2)
# Format: cell-based
# condition_set: Nanoluc luciferase reporter, 16-18 hrs, Table 9, read-out: RORγt5X IC50 Range*
pIC50: −log10 of the molar value.
attribute_measured: pIC50

Solved entries:
Recorded pIC50 for CCS(=O)(=O)c1ccc(CC(=O)Nc2nc3c(s2)CN(C[C@@H]2CC[C@H](C(F)(F)F)N(C)C2)[C@H]3C(C)C)cc1 (relative stereo) , please? < 6.00

Recorded pIC50 for `CCS(=O)(=O)c1ccc(CC(=O)Nc2nc3c(s2)CN(Cc2ccc(C)nn2)[C@H]3C(C)C)cc1` , please? < 6.00

Recorded pIC50 for `CCS(=O)(=O)c1ccc(CC(=O)Nc2nc3c(s2)CN([C@H](C)Cc2ccc(F)cc2)[C@@H]3C(C)C)cc1` , please? < 6.00

***
Recorded pIC50 for `CC(C)[C@@H]1c2nc(NC(=O)Cc3ccc(S(C)(=O)=O)cc3)sc2CN1Cc1cccc(Cl)c1` , please? < 6.00

Recorded pIC50 for `CCS(=O)(=O)c1ccc(CC(=O)Nc2nc3c(s2)CN([C@H](C)c2c(F)cc(Cl)cc2F)[C@H]3C(C)C)cc1` , please? > 7.00

Recorded pIC50 for `CCS(=O)(=O)c1ccc(CC(=O)Nc2nc3c(s2)CN(Cc2ccn(C4CC4)c(=O)c2)[C@H]3C(C)C)cc1` , please? 6.00 to 7.00

Recorded pIC50 for `CCS(=O)(=O)c1ccc(CC(=O)Nc2nc3c(s2)CN(Cc2ccn(C(F)F)c(=O)c2)[C@H]3C(C)C)cc1` , please? > 7.00

Recorded pIC50 for `CC[C@H]1c2nc(NC(=O)Cc3ccc(S(=O)(=O)CC)cc3)sc2CN1Cc1ncc(Cl)cn1` , please? > 7.00

* * *

# target_of_assay: full-length RORγt in Jurkat cells (Homo sapiens (Human))
# test_description: RORγt 5xRORE Assay in Jurkat Cells (Assay 2)
# Format: cell-based
# condition_set: Nanoluc luciferase reporter, 16-18 hrs, Table 9, read-out: RORγt5X IC50 Range*
pIC50: −log10 of the molar value.
Catalogue of pIC50 values

Solved entries:
Query for full-length RORγt in Jurkat cells (Homo sapiens (Human)): what pIC50 does the record show for `CCS(=O)(=O)c1ccc(CC(=O)Nc2nc3c(s2)CN(Cc2ccn(CC(F)(F)F)c(=O)c2)[C@H]3C(C)C)cc1` ? > 7.00

Query for full-length RORγt in Jurkat cells (Homo sapiens (Human)): what pIC50 does the record show for `CCS(=O)(=O)c1ccc(CC(=O)Nc2nc3c(s2)CN(Cc2ccc(C(F)(F)F)nn2)[C@H]3C(C)C)cc1` ? > 7.00

Query for full-length RORγt in Jurkat cells (Homo sapiens (Human)): what pIC50 does the record show for `CCS(=O)(=O)c1ccc(CC(=O)Nc2nc3c(s2)CN(Cc2cc(C(F)(F)F)cc(C(F)(F)F)c2)[C@@H]3C(C)C)cc1` ? < 6.00

Query for full-length RORγt in Jurkat cells (Homo sapiens (Human)): what pIC50 does the record show for CCS(=O)(=O)c1ccc(CC(=O)Nc2nc3c(s2)CN(C[C@H]2CC[C@H](C(F)(F)F)NC2)[C@H]3C(C)C)nc1 (single isomer, unassigned) [drawing 211] ? 6.00 to 7.00

Query for full-length RORγt in Jurkat cells (Homo sapiens (Human)): what pIC50 does the record show for `Cc1nc(C(F)(F)F)ccc1CN1Cc2sc(NC(=O)Cc3ccc(S(C)(=O)=O)cc3F)nc2[C@@H]1C(C)C` ? > 7.00

Query for full-length RORγt in Jurkat cells (Homo sapiens (Human)): what pIC50 does the record show for CC[C@H](C)C1c2nc(C(=O)NCc3ccc(S(C)(=O)=O)cc3)sc2CN1Cc1ccc(OC(F)F)cc1 (stereo partly shown) ? 6.00 to 7.00

Shifting focus to the compound that follows.
Query for full-length RORγt in Jurkat cells (Homo sapiens (Human)): what pIC50 does the record show for `CCS(=O)(=O)c1ccc(CC(=O)Nc2nc3c(s2)CN(CC2CCS(=O)(=O)CC2)[C@H]3C(C)C)cc1` ? < 6.00
